test system: pale smartweed (Po); assay: Test Example 3: herbicidal effects by upland field foliage treatment; type: in vivo; parameters: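 grade of growth control; 5 = at least 90%; 4 = 70 to 90%; 3 = 50 to 70%; 2 = 30 to 50%; 1 = 10 to 30%; 0 = under 10%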; conditions: 100 g active ingredient per 10 ares, evaluated 14th day after treatment
ENDPOINT: Herbicidal effects Po
Note: the reply should be a number with no unit written.

Query :: I'd like to know its Herbicidal effects Po. The compound in question is C#CCN1C(=O)C(C)Oc2cc(Cl)c(-c3ccc(C(F)(F)F)n(C)c3=O)cc21 (centres unmarked) [Compound No. 2′-1]
Result :: 5

Query :: Then C#CC(CC)Oc1cc(Cl)cc(F)c1-c1ccc(C(F)(F)F)n(C)c1=O (centres unmarked) [1′-6] ?
Result :: 5

Query :: Then Cn1cc(-c2cc(Oc3ccccc3)c(Cl)cc2F)c(=O)cc1C(F)(F)F [Compound No. 6-19] ?
Result :: 5

Query :: Then CCCOC(C)c1cc2c(-c3ccc(C(F)(F)F)n(C)c3=O)c(F)cc(Cl)c2o1 (centres unmarked) [Compound 4-37] ?
Result :: 5
